Molecular target: trypsin, type IX from porcine pancreas (Sus scrofa, UniProt P00761)
Construct: purchased Sigma, St. Louis Mo; host or cells: porcine pancreas
Sequence (P00761 9-231): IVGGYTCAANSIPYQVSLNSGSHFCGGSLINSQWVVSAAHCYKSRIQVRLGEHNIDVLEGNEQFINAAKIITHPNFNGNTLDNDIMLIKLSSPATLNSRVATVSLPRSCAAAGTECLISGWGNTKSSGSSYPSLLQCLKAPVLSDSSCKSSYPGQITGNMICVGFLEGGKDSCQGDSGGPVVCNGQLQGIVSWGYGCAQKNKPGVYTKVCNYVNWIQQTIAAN
Assay: Trypsin Assay (L-BAPNA, 405 nm)
Type: biochemical
Conditions: read-out: Trpysin II IC50
Quick reference: IC50 of the listed items.

Q) Supply measured IC50 of N=C(N)c1ccc(CNC(=O)Cc2c(F)ccc(NS(=O)(=O)Cc3ccccc3)c2F)cc1 in your reply.
A) 7.3 µM

Q) Supply measured IC50 of N=C(N)NCCCCCNC(=O)c1cc(NS(=O)(=O)Cc2ccccc2)ccc1Sc1ccccc1 in your reply.
A) > 100 µM

Q) Supply measured IC50 of O=C(NCc1ccncc1)c1cc(NS(=O)(=O)Cc2ccccc2)ccc1Sc1ccccc1 in your reply.
A) > 30 µM

Q) Supply measured IC50 of CN(C)c1ccc(CNC(=O)c2cc(NS(=O)(=O)Cc3ccccc3)ccc2Sc2ccccc2)cc1 in your reply.
A) > 30 µM

Q) Supply measured IC50 of O=C(Cc1c(F)ccc(NS(=O)(=O)Cc2ccccc2)c1F)NCc1ccncc1 in your reply.
A) > 30 µM
